system: M14 melanoma; test: NCI-60 one-dose screen, 48 h; settings: 10 µM unless noted
The panel holds about 83,000 compounds, 20% with a hit somewhere; the sample as a whole holds those more often. The source made the active and inactive calls. How the source made its calls: active means growth percent below 10; inactive means the rest.
Please answer using one outcome listed in active, inactive

Look over these answered cases.
{"Smiles Repr": "CC[C@H](C)[C@H](NC(=O)[C@H]1CCCCN1C)C(=O)N(C)[C@H](CCc1nc(C(=O)N[C@@H](Cc2ccccc2)C[C@H](C)C(=O)OC)cs1)C(C)C", "Assigned Class": "active"}
{"Smiles Repr": "O=C(CCCC1CCCCC1)OCC(Cl)(Cl)Cl", "Assigned Class": "inactive"}
{"Smiles Repr": "CC(=O)O[C@H]1CC[C@H]2[C@@H]3CC=C4c5nc(-c6ccccc6)sc5CC[C@]4(C)[C@H]3CC[C@]12C", "Assigned Class": "inactive"}
{"Smiles Repr": "COc1ccc(Nc2ccnc3cc(Cl)ccc23)cc1CN(CCCl)CCCl", "Assigned Class": "active"}
{"Smiles Repr": "c1cnc2[nH]cc(-c3csc(-c4cn(CCCCN5CCCCC5)c5ccccc45)n3)c2c1", "Assigned Class": "inactive"}

Call for entry C/C(CC(C)(C)N1CC1)=N\NC(=O)Nc1cccc2ccccc12 :
inactive

Hello, I am checking results. What call was entered for COc1ccc(/C=C\c2cc(OC)c(OC)c(OC)c2)cc1OCC(=O)Nc1nc2ccc(C(F)(F)F)cc2s1 ?
inactive

Per the assay record, what outcome was assigned to COc1ccc(N(CC(=O)NCCC[Te]c2ccccc2)C(=O)CNC(=O)OC(C)(C)C)cc1 ?
active

###

system: UO-31 renal; test: NCI-60 one-dose screen, 48 h (100 = growth as untreated, 0 = no growth, -100 = all killed); conditions: 10 µM unless noted
The panel holds about 83,000 compounds, 20% with a hit somewhere; the sample as a whole holds those more often.
Label Criterion met when growth < 50%; otherwise Criterion not met.

{"Compound": "COC(=O)[C@@H](C)C[C@H](Cc1ccccc1)NC(=O)c1csc([C@@H](C[C@H](C(C)C)N(C)C(=O)C2(NC(=O)[C@H]3CCCCN3C)CCC2)OC(C)=O)n1", "Assigned Class": "Criterion met"}

Is it true that growth reported for COc1cc2c(cc1OCCCn1c(-c3ccccn3)nc3ccccc31)N=C[C@@H]1CCCN1C2=O is less than 50%?
Criterion met

Criterion: growth strictly below 50%. Is it met by CCOC(=O)[C@@H](C)C[C@H](Cc1ccccc1)NC(=O)c1nc([C@@H](C[C@H](C(C)C)N(C)C(=O)[C@@H](NC(=O)[C@H]2CCCCN2C)C(C)C)OC(C)=O)sc1CCOCc1ccccc1 ?
Criterion met

Is the reported growth for C1CCC([PH+](C2CCCCC2)C2CCCCC2[PH+](C2CCCCC2)C2CCCCC2)CC1.[Au].[CH-]1CCCCC1CC1CCCC[N-]1 (configuration not stated) strictly below 50%?
Criterion met

Strictly below 50% in growth? O=C(c1ccccc1O)c1[nH]c(Cl)c(Cl)c1-n1c(C(=O)c2ccccc2O)cc(Cl)c1Cl
Criterion met

growth strictly < 50% for this compound? CC1(C)N=C(N)N=C(N)N1c1ccc(OCCCNC(=O)Nc2ccc(S(=O)(=O)F)cc2)c(Cl)c1
Criterion not met

###

Test system: NCI-H522 lung
Test: NCI-60 one-dose screen, 48 h
Conditions: 10 µM unless noted
Experimental: Growth inhibition of the NCI-H522 human Non-Small Cell Lung tumor cell line is measured as a screen for anti-cancer activity. Cells are grown in 96 well plates and exposed to the test compound for 48 hours. Compounds are tested at a single concentration, which is 10^-5 M for most compounds. The reported endpoint is percent growth (GI% or GIPRCNT), where numbers from 0 - 100% represent growth inhibition, and numbers from -100% - 0 represent cell death. […]
This is part of a sample that, as a whole, favours compounds with a hit. Of some 83,000 tested, about 20% had one in any assay. Calls of active or inactive are those of the source. Rule for the calls: active = growth percent below 10; inactive = the rest.
Give your call using only these classes: label 1 (active), label 0 (inactive)

{"Compound": "CCCCN1CCCC[C@@H]1C(=O)N[C@H](C(=O)N(C)[C@H](C[C@@H](OC(C)=O)c1nc(C(=O)NC2CCC(C(=O)OC)CC2)cs1)C(C)C)C(C)C (some centres undefined)", "System": "NCI-H522 lung", "Assigned Class": "label 1"}

Dear colleague, could you share the recorded outcome for CC(C)[C@]12O[C@H]1[C@@H]1O[C@]13[C@]1(O[C@H]1C[C@H]1c4c(C(=O)c5ccccc5)oc(OC(=O)c5ccccc5)c4CC[C@@]13C)[C@@H]2O when you have a moment?
label 1

Tell me the recorded outcome of this test for C[N+](C)(C)Cc1cc(Cl)ccc1O .
label 0

Test call, this compound: c1ccc(Nc2nc(-c3ccccc3)c[se]2)cc1
label 0
